Attribute: inhibition at 0.1 µM
- targetOfAssay: GSPT1 protein (Homo sapiens, UniProt P15170+Q96SW2)
- Construct: endogenous in cells; host or cells: Jeko-1
- Sequence (P15170 whole entry): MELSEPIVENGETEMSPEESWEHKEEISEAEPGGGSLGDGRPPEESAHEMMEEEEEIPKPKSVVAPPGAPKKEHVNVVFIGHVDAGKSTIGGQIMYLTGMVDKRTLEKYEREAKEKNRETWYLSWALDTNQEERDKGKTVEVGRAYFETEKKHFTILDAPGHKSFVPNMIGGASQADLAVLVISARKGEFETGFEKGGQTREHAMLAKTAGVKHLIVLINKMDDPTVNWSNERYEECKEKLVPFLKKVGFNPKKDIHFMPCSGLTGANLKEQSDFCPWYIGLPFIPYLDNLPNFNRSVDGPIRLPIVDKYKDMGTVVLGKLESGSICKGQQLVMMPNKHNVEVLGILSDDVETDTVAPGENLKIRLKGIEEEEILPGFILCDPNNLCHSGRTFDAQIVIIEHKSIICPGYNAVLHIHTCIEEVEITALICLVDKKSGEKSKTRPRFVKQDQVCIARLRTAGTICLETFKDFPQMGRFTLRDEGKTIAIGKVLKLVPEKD
- Sequence (Q96SW2 whole entry): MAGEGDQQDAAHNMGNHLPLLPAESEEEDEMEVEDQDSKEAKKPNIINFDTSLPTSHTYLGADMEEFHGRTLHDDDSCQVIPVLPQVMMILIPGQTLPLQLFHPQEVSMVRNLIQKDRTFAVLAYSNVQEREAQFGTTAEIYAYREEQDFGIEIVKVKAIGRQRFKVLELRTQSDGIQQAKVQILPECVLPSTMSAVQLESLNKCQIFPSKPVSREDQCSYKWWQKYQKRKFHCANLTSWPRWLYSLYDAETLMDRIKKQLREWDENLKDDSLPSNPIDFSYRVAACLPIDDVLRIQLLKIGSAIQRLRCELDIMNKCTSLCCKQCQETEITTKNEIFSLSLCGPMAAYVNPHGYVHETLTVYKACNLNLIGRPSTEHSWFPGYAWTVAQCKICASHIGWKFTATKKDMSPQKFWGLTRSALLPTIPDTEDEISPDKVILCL
- Sequence (Q16531 whole entry partner): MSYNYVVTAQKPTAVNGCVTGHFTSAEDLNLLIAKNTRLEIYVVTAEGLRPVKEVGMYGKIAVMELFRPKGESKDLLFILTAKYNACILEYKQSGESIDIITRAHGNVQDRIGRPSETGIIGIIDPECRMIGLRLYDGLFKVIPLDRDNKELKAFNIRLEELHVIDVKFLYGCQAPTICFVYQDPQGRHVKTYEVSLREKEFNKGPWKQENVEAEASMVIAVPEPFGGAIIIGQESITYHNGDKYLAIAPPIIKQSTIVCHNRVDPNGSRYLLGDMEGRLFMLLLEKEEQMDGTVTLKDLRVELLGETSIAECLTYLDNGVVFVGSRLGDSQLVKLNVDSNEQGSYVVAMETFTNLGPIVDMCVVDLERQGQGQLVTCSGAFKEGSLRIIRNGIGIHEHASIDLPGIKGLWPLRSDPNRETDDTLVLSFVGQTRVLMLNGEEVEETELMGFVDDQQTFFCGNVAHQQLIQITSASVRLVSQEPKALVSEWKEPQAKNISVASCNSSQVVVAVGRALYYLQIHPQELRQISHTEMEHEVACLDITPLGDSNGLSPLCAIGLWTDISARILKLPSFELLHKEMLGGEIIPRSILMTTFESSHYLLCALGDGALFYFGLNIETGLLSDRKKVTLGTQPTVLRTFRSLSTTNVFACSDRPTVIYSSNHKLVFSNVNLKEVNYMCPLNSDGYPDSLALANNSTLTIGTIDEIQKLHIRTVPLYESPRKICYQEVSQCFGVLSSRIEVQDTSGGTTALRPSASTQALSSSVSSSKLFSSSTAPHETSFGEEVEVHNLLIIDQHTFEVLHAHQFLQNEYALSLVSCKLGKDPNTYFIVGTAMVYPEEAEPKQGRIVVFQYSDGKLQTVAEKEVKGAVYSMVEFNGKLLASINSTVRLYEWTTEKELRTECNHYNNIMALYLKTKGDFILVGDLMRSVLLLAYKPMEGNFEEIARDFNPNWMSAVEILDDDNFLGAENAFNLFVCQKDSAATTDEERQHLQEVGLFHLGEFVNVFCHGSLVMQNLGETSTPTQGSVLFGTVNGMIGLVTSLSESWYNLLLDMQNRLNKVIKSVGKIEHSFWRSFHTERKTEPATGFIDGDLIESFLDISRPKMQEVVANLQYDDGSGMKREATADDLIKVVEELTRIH
- assayText: Western blot detection of degradation activity of GSPT1 protein in Jeko-1 cells
- Format: cell-based
- reportedConditions: JeKo-1, 24 h, 100 nM, Jeko-1 cells, 24 hours; read-out: GSPT1 degradation rate (%)
Kindly answer with a numeric value in %, unit omitted.

Known inhibition at 0.1 µM results, listed for orientation:
CC(C)(C)OC(=O)N[C@@H](Cc1ccccc1)C(=O)NCc1ccc2c(c1)CN(C1CCC(=O)NC1=O)C2=O (stereo partly shown) [Compound 5-37] | 97.8
CC(C)(C)OC(=O)N[C@H](Cc1ccccc1Cl)C(=O)NCc1ccc2c(c1)CN(C1CCC(=O)NC1=O)C2=O (stereo partly shown) [Compound 5-83] | 96.2

Lookup: Can you look up inhibition at 0.1 µM on GSPT1 protein (Homo sapiens, UniProt P15170+Q96SW2) for CC(C)(C)OC(=O)N[C@H](C(=O)NCc1ccc2c(c1)CN(C1CCC(=O)NC1=O)C2=O)c1ccc(Cl)cc1 (stereo partly shown) [Compound 4-150] ?
Found: 90

Lookup: Repeat with Cc1ccc([C@H](NC(=O)OC(C)(C)C)C(=O)NCc2ccc3c(c2)CN(C2CCC(=O)NC2=O)C3=O)cc1 (stereo partly shown) [Compound 4-166]
Found: 82

---

This listing pairs compounds with measured inhibition at 0.1 µM.
- targetOfAssay: GSPT1 protein (Homo sapiens, UniProt P15170+Q96SW2)
- Construct: endogenous in cells; host or cells: Jeko-1
- assayText: Western blot detection of degradation activity of GSPT1 protein in Jeko-1 cells
- Type: cell-based
- reportedConditions: JeKo-1, 24 h, 100 nM, Jeko-1 cells, 24 hours; read-out: GSPT1 degradation rate (%)
Provide the reading as a plain figure in %.

The following compounds have reported results that may help.
CCN(C(=O)OC(C)(C)C)[C@H](C(=O)NCc1ccc2c(c1)CN(C1CCC(=O)NC1=O)C2=O)c1ccccc1 (stereo partly drawn) [Compound 1-89] | 97.8
CC(C)(C)OC(=O)NC[C@@H](Cc1ccccc1)C(=O)NCc1ccc2c(c1)CN(C1CCC(=O)NC1=O)C2=O (stereo partly drawn) [Compound 4-171] | 29
O=C1CCC(N2Cc3cc(CNC(=O)C(NC(=O)CC4CCCC4)c4ccccc4)ccc3C2=O)C(=O)N1 (stereo not drawn) [Compound 5-29] | 70
CCOC(=O)N[C@H](C(=O)NCc1ccc2c(c1)CN(C1CCC(=O)NC1=O)C2=O)c1ccccc1 (stereo partly drawn) [Compound 4-138] | 31
CC(C)(C)C(=O)NCC(C(=O)NCc1ccc2c(c1)CN(C1CCC(=O)NC1=O)C2=O)c1ccccc1 (stereo not drawn) [Compound 5-23] | 28

Please examine the following record next.
Lookup: GET /values?readout=inhibition at 0.1 µM&item= CC(C)(C)OC(=O)N[C@H](C(=O)NCc1ccc2c(c1)CN(C1CCC(=O)NC1=O)C2=O)c1ccc2ccccc2c1 (stereo partly drawn) [Compound 4-133]
Found: 79
